Assay explanation: NIAID secondary assay, Neutral Red (CPE/Tox), EV-71
Recorded metric: CC50 (µM)
Quick reminder: number only, in µM, skip the unit.

Recorded CC50 of Cc1ccc2[nH]c(-c3ccc(NC(=O)c4cccs4)cc3)nc2c1 [Compound 36] , please.
25

----------
Read-out record for EV-A71 Δ2C^116-329 (2C ATPase) (Enterovirus A71, UniProt B9VUU3): IC50
Quick reminder: number only, in µM, skip the unit.

Check out these entries, answers already filled in.
O=c1nc(C=Cc2cn(Cc3ccccc3Cl)c3ccccc23)cc(C(F)(F)F)[nH]1 :: 71.3
O=C(Cn1nc2c(Oc3cccc(F)c3)nccn2c1=O)Nc1cccc(Cl)c1 :: 61.2
Nc1nc(N)nc(COC(=O)CCc2c(-c3ccc(F)cc3)[nH]c3ccc(F)cc23)n1 :: 7.5

Form field - read-out: IC50; system: EV-A71 Δ2C^116-329 (2C ATPase) (Enterovirus A71, UniProt B9VUU3); submitted item: OC(COC(c1ccc(F)cc1)c1ccc(F)cc1)Cn1cnc2cc(F)c(F)cc21 (stereo not shown)
Sequence (B9VUU3 1227-1440, stated change not applied): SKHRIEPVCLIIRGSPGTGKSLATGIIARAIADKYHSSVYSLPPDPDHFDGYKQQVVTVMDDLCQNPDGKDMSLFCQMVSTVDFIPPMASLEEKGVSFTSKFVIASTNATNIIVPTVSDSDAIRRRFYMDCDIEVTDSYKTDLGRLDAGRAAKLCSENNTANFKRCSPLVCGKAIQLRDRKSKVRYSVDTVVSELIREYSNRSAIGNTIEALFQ
57.3

Source listed as patent US20240131007A1.
